- System: HTT
- Protocol Description: HiBiT protein abundance assay, HTT (K562 HiBiT knock-in)
- Format: cell-based, human
- Run Parameters: HiBiT knock-in K562 cells, 24 hours, top dose 10 μM
pIC50: −log10 of the molar value.
Reported pIC50 values for a set of compounds

Compound	Measured On	pIC50
Cc1c(O)c(-c2ncc3nc(N4CCC5(CCN5)C4)ccc3n2)cc2cn(C)nc12 (stereo not drawn)	HTT	6.00 to 7.00
CCC1CN(c2ccc3nc(-c4cc5cn(C)nc5cc4O)ccc3n2)CCN1 (stereo not drawn)	HTT	6.00 to 7.00
Cc1nc2c(C)c(O)c(-c3ccc4cc(N5CC[C@@H](NC(C)(C)C)C5)ncc4n3)cc2o1 (single isomer, unassigned)	HTT	> 7.00
Cn1cc2cc(-c3ccc4nc(N5CCC(NC(C)(C)C)C5)ccc4n3)c(O)cc2n1 (stereo not drawn)	HTT	> 7.00
Cc1c(O)c(-c2nc(C(N)=O)c3cc(N4C[C@H](C)N[C@@H](C)C4)ccc3n2)cc2cn(C)nc12	HTT	6.00 to 7.00

Asked: Quick check: pIC50 of `CNC(=O)c1nc(-c2cc(F)c3nc(C)cn3c2)nc2ccc(N3CCNCC3)cc12` ?
Given back: 6.00 to 7.00

Asked: Quick check: pIC50 of Cn1cc2cc(-c3ccc4nc(N5CCC(NC(C)(C)C)C5)ccc4n3)c(O)c(F)c2n1 (stereo not drawn) ?
Given back: > 7.00

Asked: Quick check: pIC50 of `Cn1cc2c(O)c(-c3cc4ccc(C5CCNCC5)nc4cn3)cc(Br)c2n1` ?
Given back: 5.00 to 6.00

Asked: Quick check: pIC50 of `Cc1nc2cc(O)c(-c3ccc4cc(N5CC[C@H](NC(C)(C)C)C5)ncc4n3)cc2o1` ?
Given back: 5.00 to 6.00

Asked: Quick check: pIC50 of `Cn1cc2nc(-c3ccc4nc(C5CCNCC5)ccc4n3)ccc2n1` ?
Given back: 6.00 to 7.00

Asked: Quick check: pIC50 of Cc1nc2c(F)c(O)c(-c3ccc4nc(N5CC[C@H](NC6CCC6)C5)ccc4n3)cc2o1 (single isomer, unassigned) ?
Given back: > 7.00

Asked: Quick check: pIC50 of `Cn1cc2cc(-c3ccc4nc(N5C[C@H]6CC[C@@H](C5)N6)ccc4n3)c(O)cc2n1` ?
Given back: 5.00 to 6.00

Asked: Quick check: pIC50 of Cc1nc2cc(O)c(-c3ccc4nc([C@@H]5CCNC6(CC6)C5)ccc4n3)cc2o1 (single isomer, unassigned) ?
Given back: > 7.00

Asked: Quick check: pIC50 of `CNC(=O)c1nc(-c2cc3cn(C)nc3c(C)c2O)nc2ccc(N3C[C@H](C)N[C@@H](C)C3)cc12` ?
Given back: > 7.00

Asked: Quick check: pIC50 of Cc1nc2c(C)c(O)c(-c3ccc4nc(N5CCC(NC6CCC6)C5)ccc4n3)cc2o1 (stereo not drawn) ?
Given back: > 7.00

###

- Test system: MYB
- Protocol Description: HiBiT protein abundance assay, MYB (K562 HiBiT knock-in)
- Type: cell-based, human
- Run Parameters: HiBiT knock-in K562 cells, 24 hours, top dose 10 μM
Metric Name: IC50

Answered examples (4):
Compound	IC50
Cn1cc2cc(-c3ccc4nc(N5CCC(NC(C)(C)C)CC5)ccc4n3)c(O)cc2n1	> 10000 nM
Cc1nc2c(F)c(O)c(-c3ccc4nc(N5CC[C@@H](NC6(C)CC6)C5)ccc4n3)cc2o1 (stereo in doubt)	< 100 nM
Cc1nc2cc(O)c(-c3ccc4nc(N5C[C@@H](C)N[C@@H](C)C5)ccc4n3)cc2o1	100 to 1000 nM
Cc1c(O)c(-c2ccc3nc(N4CC[C@H](N[C@H]5C[C@H](F)C5)C4)ccc3n2)cc2cn(C)nc12 (single isomer, unassigned)	< 100 nM

Asked: Quick check: IC50 of `CNC(=O)c1nc(-c2cc3cn(C)nc3cc2O)nc2ccc(N3CCN[C@@H](C)C3)cc12` ?
Given back: < 100 nM

Asked: Quick check: IC50 of `CN1CCN(c2ccc3nc(-c4cc5cn(C)nc5cc4O)ccc3n2)CC1` ?
Given back: 1000 to 10000 nM

Asked: Quick check: IC50 of `C[C@@H]1CN(c2ccc3nc(-c4cc5cn(C)nc5c(F)c4O)ncc3c2)C[C@@H](C)N1` ?
Given back: < 100 nM
